- Tested on: HCI-002 (organoid from a triple-negative breast cancer xenograft)
- measurement description: CTG-3D luminescence at 96 h relative to day-0 seeding control (ratio to day 0); higher = more growth / less cytotoxicity; PDxO 3D drug screen (set 2), 96 h, CTG-3D normalised to day-0 seeding control.
- run parameters: 10 µM; days in culture: 168
recorded endpoint: CTG-3D luminescence at 96 h

| compound | recorded number |
| --- | --- |
| CC(=O)c1c(C)c2cnc(Nc3ccc(N4CCNCC4)cn3)nc2n(C2CCCC2)c1=O | 2.23 |
| COc1cccc2c1C(=O)c1c(O)c3c(c(O)c1C2=O)C[C@@](O)(C(=O)CO)C[C@@H]3O[C@H]1C[C@H](N)[C@@H](O)[C@H](C)O1 [epirubicin] | 0.0935 |
| CO[C@H]1C[C@@H]2CC[C@@H](C)[C@@](O)(O2)C(=O)C(=O)N2CCCC[C@H]2C(=O)O[C@H]([C@H](C)C[C@@H]2CC[C@@H](OCCO)[C@H](OC)C2)CC(=O)[C@H](C)/C=C(\C)[C@@H](O)[C@@H](OC)C(=O)[C@H](C)C[C@H](C)/C=C/C=C/C=C/1C | 2.73 |
| CC(C)n1nc(-c2ccc3oc(N)nc3c2)c2c(N)ncnc21 | 0.787 |
| O=C(c1cc(Cc2n[nH]c(=O)c3ccccc23)ccc1F)N1CCN(C(=O)C2CC2)CC1 | 2.04 |

---

Each item that follows carries a reported CTG-3D luminescence at 96 h.
- Test system: HCI-008 (organoid from a HER2-enriched breast cancer xenograft)
- measurement description: CTG-3D luminescence at 96 h relative to day-0 seeding control (ratio to day 0); higher = more growth / less cytotoxicity; PDxO 3D drug screen, 96 h, CTG-3D normalised to day-0 seeding control.
- run parameters: 0.005 µM; days in culture: 228

| compound | CTG-3D luminescence at 96 h |
| --- | --- |
| C[C@]12CC[C@@H]3c4ccc(O)cc4C[C@@H](CCCCCCCCC[S+]([O-])CCCC(F)(F)C(F)(F)F)[C@H]3[C@@H]1CC[C@@H]2O (stereo partly drawn) [fulvestrant] | 1.34 |
| C/C=C1\NC(=O)[C@H]2CSSCC/C=C/[C@H](CC(=O)N[C@H](C(C)C)C(=O)N2)OC(=O)[C@H](C(C)C)NC1=O [romidepsin] | 0.632 |
| CC1(C)CCC(c2ccc(Cl)cc2)=C(CN2CCN(c3ccc(C(=O)NS(=O)(=O)c4ccc(N[C@H](CCN5CCOCC5)CSc5ccccc5)c(S(=O)(=O)C(F)(F)F)c4)cc3)CC2)C1 [navitoclax] | 1.55 |

---

- Test system: HCI-016 (organoid from a triple-negative breast cancer xenograft)
- measurement description: CTG-3D luminescence at 96 h relative to day-0 seeding control (ratio to day 0); higher = more growth / less cytotoxicity; PDxO 3D drug screen (set 2), 96 h, CTG-3D normalised to day-0 seeding control.
- run parameters: 12.5 pM; days in culture: 397
recorded endpoint: CTG-3D luminescence at 96 h

| compound | recorded endpoint | recorded number |
| --- | --- | --- |
| CC(C)n1nc(-c2ccc3oc(N)nc3c2)c2c(N)ncnc21 [sapanisertib] | CTG-3D luminescence at 96 h | 1.83 |
| CCOc1ccn(-c2ccc(F)cc2)c(=O)c1C(=O)Nc1ccc(Oc2ccnc(N)c2Cl)c(F)c1 [ASLAN002] | CTG-3D luminescence at 96 h | 1.73 |
| Nc1cc(C(F)(F)F)c(-c2cc(N3CCOCC3)nc(N3CCOCC3)n2)cn1 [buparlisib] | CTG-3D luminescence at 96 h | 1.77 |
| CS(=O)(=O)CCNCc1ccc(-c2ccc3ncnc(Nc4ccc(OCc5cccc(F)c5)c(Cl)c4)c3c2)o1 [lapatinib] | CTG-3D luminescence at 96 h | 1.92 |

---

Below, each entry is listed with its recorded CTG-3D luminescence at 96 h.
- System: HCI-024 (organoid from a breast cancer xenograft)
- measurement description: CTG-3D luminescence at 96 h relative to day-0 seeding control (ratio to day 0); higher = more growth / less cytotoxicity; PDxO 3D drug screen, 96 h, CTG-3D normalised to day-0 seeding control.
- run parameters: 10 µM; days in culture: 105

| compound | target or test system | CTG-3D luminescence at 96 h |
| --- | --- | --- |
| O=C(c1ccc(F)c(F)c1Nc1ccc(I)cc1F)N1CC(O)([C@@H]2CCCCN2)C1 [cobimetinib] | HCI-024 | 0.316 |
| Nc1ccn([C@@H]2O[C@H](CO)[C@@H](O)C2(F)F)c(=O)n1 [gemcitabine] | HCI-024 | 0.91 |
| NC(=O)c1cccc2cn(-c3ccc([C@@H]4CCCNC4)cc3)nc12 [niraparib] | HCI-024 | 1.27 |
| CNC(=O)c1cccc(-c2ccc3c(N4CCOC[C@@H]4C)nc(N4CCOC[C@@H]4C)nc3n2)c1 [vistusertib] | HCI-024 | 0.778 |

---

- Tested on: HCI-025 (organoid from a breast cancer xenograft)
- measurement description: CTG-3D luminescence at 96 h relative to day-0 seeding control (ratio to day 0); higher = more growth / less cytotoxicity; PDxO 3D drug screen, 96 h, CTG-3D normalised to day-0 seeding control.
- run parameters: 10 µM; days in culture: 209
Label Y when CTG-3D luminescence at 96 h is at or above 0.03; otherwise label N.

| compound | cat |
| --- | --- |
| COc1cc2c(Oc3ccc4[nH]c(C)cc4c3F)ncnc2cc1OCCCN1CCCC1 [cediranib] | N |
| C[C@H](NC(=O)CCC(F)(F)F)C(=O)N[C@@H]1C(=O)N(CCO)c2ncccc2-c2ccccc21 [crenigacestat] | Y |
| C[C@@H]1COCCN1c1cc(C2([S@](C)(=N)=O)CC2)nc(-c2cc[nH]c3nccc2-3)n1 [ceralasertib] | Y |
| CCc1c2c(nc3ccc(O)cc13)-c1cc3c(c(=O)n1C2)COC(=O)[C@]3(O)CC [SN-38] | Y |
| COc1cccc2c1C(=O)c1c(O)c3c(c(O)c1C2=O)C[C@@](O)(C(=O)CO)C[C@@H]3O[C@H]1C[C@H](N)[C@H](O)[C@H](C)O1 [doxorubicin] | N |
| C=CCn1c(=O)c2cnc(Nc3ccc(N4CCN(C)CC4)cc3)nc2n1-c1cccc(C(C)(C)O)n1 [adavosertib] | Y |
| C/C=C1\NC(=O)[C@H]2CSSCC/C=C/[C@H](CC(=O)N[C@H](C(C)C)C(=O)N2)OC(=O)[C@H](C(C)C)NC1=O [romidepsin] | Y |

---

- Tested on: HCI-027 (organoid from a triple-negative breast cancer xenograft)
- measurement description: CTG-3D luminescence at 96 h relative to day-0 seeding control (ratio to day 0); higher = more growth / less cytotoxicity; PDxO 3D drug screen, 96 h, CTG-3D normalised to day-0 seeding control.
- run parameters: 1 µM; days in culture: 176
Lab note: compare CTG-3D luminescence at 96 h against 2. Equal or greater, write Y. Smaller, write N.

| compound | cat |
| --- | --- |
| Cc1cc(Nc2ncnc3ccc(NC4=NC(C)(C)CO4)cc23)ccc1Oc1ccn2ncnc2c1 [tucatinib] | N |
| NC(=O)Nc1cc(-c2cccc(F)c2)sc1C(=O)N[C@H]1CCCNC1 [AZD7762] | N |
| COc1cc2c(Oc3ccc4[nH]c(C)cc4c3F)ncnc2cc1OCCCN1CCCC1 [cediranib] | Y |
| O=C(O)C1(C(=O)O)CCC1.[NH2-].[NH2-].[Pt+2] [carboplatin] | Y |
| CS(=O)(=O)c1ccc(C(=O)Nc2ccc(Cl)c(-c3ccccn3)c2)c(Cl)c1 [vismodegib] | Y |
| CNC(=O)c1cccc(-c2ccc3c(N4CCOC[C@@H]4C)nc(N4CCOC[C@@H]4C)nc3n2)c1 [vistusertib] | N |
| O=C(/C=C/c1cccnc1)NCCCCC1CCN(C(=O)c2ccccc2)CC1 [FK866] | N |
| C[C@]12CC[C@@H]3c4ccc(O)cc4C[C@@H](CCCCCCCCC[S+]([O-])CCCC(F)(F)C(F)(F)F)[C@H]3[C@@H]1CC[C@@H]2O (some centres undefined) [fulvestrant] | Y |

---

- System: HCI-010 (organoid from a breast cancer xenograft)
- measurement description: CTG-3D luminescence at 96 h relative to day-0 seeding control (ratio to day 0); higher = more growth / less cytotoxicity; PDxO 3D drug screen, 96 h, CTG-3D normalised to day-0 seeding control.
- run parameters: 10 µM; days in culture: 52
Consider the following compounds and their measured CTG-3D luminescence at 96 h readings.

| record smiles | CTG-3D luminescence at 96 h |
| --- | --- |
| CCN(c1cc(C#CCN2CCOCC2)cc(C(=O)NCc2c(C)cc(C)[nH]c2=O)c1C)[C@H]1CC[C@H](N(C)CCOC)CC1 | 2.29 |
| C[C@@H]1COCCN1c1cc(C2([S@](C)(=N)=O)CC2)nc(-c2cc[nH]c3nccc2-3)n1 | 0.422 |
| CC(C)(C(=O)NCC(F)(F)C(F)(F)F)C(=O)N[C@@H]1C(=O)Nc2ccccc2-c2ccccc21 | 1.9 |
| CNC(=O)c1cccc(-c2ccc3c(N4CCOC[C@@H]4C)nc(N4CCOC[C@@H]4C)nc3n2)c1 | 0.76 |
| CC[C@H](NC(=O)[C@H](C)NC)C(=O)N1C[C@@H](O)C[C@H]1Cc1c(-c2[nH]c3cc(F)ccc3c2C[C@@H]2C[C@H](O)CN2C(=O)[C@H](CC)NC(=O)[C@H](C)NC)[nH]c2cc(F)ccc12 | 1.52 |
| Cc1cc(Nc2ncc(Cl)c(Nc3ccccc3S(=O)(=O)C(C)C)n2)c(OC(C)C)cc1C1CCNCC1 | -0.0117 |

Data provenance is the supplement of paper PMC8882468.
